- assay-target: T1, EINbsite + EINosite equimolar peptide mixture (Streptomyces coelicolor, UniProt Q9KZP1, C-terminal amidation, equimolar mixture of both peptides)
- T1 chain 1: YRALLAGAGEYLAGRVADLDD
- T1 chain 2: FVTEEGGPTSHSAILARA
- measurement-protocol: ITC
readout: pKd
The scale used: pKd is minus the common logarithm of the concentration in molar units.

Problem: Return value of pKd for input HPrbs (histidine phosphocarrier protein) (protein) MKTQQFTVIDPLGIHARPASQLVAKATPFASAIEVRTEEKAANLKSILGVMGLALKQGSQFTLYVEGEDEDQAFEALATLLTEMGLAQ , no commentary.
Solution: 5.32

FYI, the data here is from paper PMC3724859.
